Reference source: ChEMBL document CHEMBL4321865

assay: physchem; details: DMSO, pH 9
Description: Solubility of the compound in DMSO at pH 9 incubated for 24 hrs by LC-UV method
The following compounds are shown together with reported solubility at 24 h values.
MEASUREMENT_KIND: solubility at 24 h (µg/mL)

> print(dat)
                                smiles.input  relation.qualifier  endpoint.value
 1  C[C@@](CCN1Cc2cc(C#Cc3ccc(CN4CCOCC4)cc3)ccc2C1=O)(C(=O)NO)S(C)(=O)=O                   >             890
 2  C[C@@](CCN1Cc2cc(C#Cc3ccc(C4(O)COC4)cc3)sc2C1=O)(C(=O)NO)S(C)(=O)=O                   >             850
 3  COc1ccc(-c2ccc3c(c2)CN(CC[C@](C)(C(=O)NO)S(C)(=O)=O)C3=O)c(F)c1                   =              22
 4  C[C@@](CCN1Cc2cc(C#CC#CC3(O)COC3)sc2C1=O)(C(=O)NO)S(C)(=O)=O                   >             760
 5  C[C@@](CCN1Cc2cc(C#Cc3ccc(COC(=O)N4CCC(O)CC4)cc3)cn2C1=O)(C(=O)NO)S(C)(=O)=O                   =             251
 6  CC(C)(O)C#CC#Cc1ccc2c(c1)CN(CC[C@](C)(C(=O)NO)S(C)(=O)=O)C2=O                   =             564
 7  CC(C)(O)C#CC#Cc1cc2n(c1)C(=O)N(CC[C@](C)(C(=O)NO)S(C)(=O)=O)C2                   >             710
 8  C[C@@](CCN1Cc2cc(C#Cc3ccc([C@H](O)CO)cc3)cn2C1=O)(C(=O)NO)S(C)(=O)=O                   =             660
 9  C[C@@](CCN1Cc2cc(C#Cc3ccc([C@H]4C[C@@H]4CO)cc3)cn2C1=O)(C(=O)NO)S(C)(=O)=O                   =             170
10  C[C@@](CCN1Cc2cc(C#Cc3ccc([C@@H]4C[C@H]4CO)cc3)cn2C1=O)(C(=O)NO)S(C)(=O)=O                   =             568
11  COc1ccc(-c2cc3c(s2)C(=O)N(CC[C@](C)(C(=O)NO)S(C)(=O)=O)C3)c(F)c1                   =              36
12  C[C@@](CCN1Cc2cc(C#Cc3ccc(CN4CCOCC4)cc3)sc2C1=O)(C(=O)NO)S(C)(=O)=O                   =             571
13  C[C@@](CCN1Cc2cc(C#CC#CC3(CO)CC3)sc2C1=O)(C(=O)NO)S(C)(=O)=O                   >             760
14  C[C@@](CCN1Cc2cc(C#CC#CC3(N)CC3)sc2C1=O)(C(=O)NO)S(C)(=O)=O.Cl                   >             740
15  C[C@@](CCN1Cc2cc(C#CC#C[C@H]3C[C@@H]3CO)sc2C1=O)(C(=O)NO)S(C)(=O)=O                   >             760
16  C[C@@](CCN1Cc2cc(C#Cc3ccc(CNS(C)(=O)=O)cc3)cn2C1=O)(C(=O)NO)S(C)(=O)=O                   =              56
17  C[C@@](CCN1Cc2cc(C#Cc3ccc(C4(CO)CC4)cc3)cn2C1=O)(C(=O)NO)S(C)(=O)=O                   =              56
18  C[C@@](CCN1Cc2cc(C#CC#CC3(O)COC3)cn2C1=O)(C(=O)NO)S(C)(=O)=O                   >             740
19  C[C@@](CCN1Cc2cc(C#Cc3ccc([C@H](O)CO)cc3)sc2C1=O)(C(=O)NO)S(C)(=O)=O                   =             814
20  C[C@@](CCN1Cc2cc(C#CC#C[C@@H]3C[C@H]3CO)sc2C1=O)(C(=O)NO)S(C)(=O)=O                   =             380
